Test system: P493-6 (myc "on") cells
test: Cell Proliferation Assay
Type: cell-based
measurement-setup: read-out: Cell prolif P493 72 h IC50; P493-6 cells, 72 h
Readings of IC50 for the listed molecules

Nc1nnc(CCCCc2ccc(NC(=O)Cc3cccc(OC(F)(F)F)c3)nn2)s1 ... 1500 nM

Now, please, on to the next molecule.
Request: Using the record for CCCC(=O)OC(C(=O)Nc1nnc(CCCCc2ccc(NC(=O)Cc3ccccc3)nn2)s1)c1cccc(Cl)c1 (centres unmarked) , report its IC50.
Result: 56 nM

* * *

target-or-system: recombinant form of Glutaminase 1 (GAC) (Homo sapiens)
test: Recombinant Enzyme Assay - Time Dependence (60 min preincubation)
Assay type: biochemical
measurement-setup: read-out: GAC Delta N2 IC50 60 min preinc
pIC50: −log10 of the molar value.
Decision: pIC50 >= 8 yields true, all other cases yield false.

Answered cases to consult:
CCNC(=O)Nc1ccc(CCCCc2nnc(NC(=O)Cc3cccc(CN)c3)s2)nn1 ... false
CN(Cc1cccc(CC(=O)Nc2nnc(CCCCc3ccc(NC(=O)Cc4ccccc4)nn3)s2)c1)C(=O)Cc1ccccc1 ... true
CCOC(=O)NCc1cccc(CC(=O)Nc2ccc(CCCCc3nnc(NC(=O)C(C)c4ccccc4)s3)nn2)c1 (stereo not shown) ... true
O=C(Cc1cccc(OC(F)(F)F)c1)Nc1ccc(CCCCc2nnc(NC(=O)C(O)c3cccc(Cl)c3)s2)nn1 (stereo not shown) ... true

Request: Has CC(N)c1cc(CC(=O)Nc2nnc(CCCCc3ccc(NC(=O)Cc4ccccc4)nn3)s2)ccc1F (stereo not shown) a recorded pIC50 greater than or equal to 8?
Result: false

* * *

target-or-system: recombinant form of Glutaminase 1 (GAC) (Homo sapiens, UniProt O94925)
test: Recombinant Enzyme Assay (no preincubation);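 further: GDH-coupled GAC activity read as absorbance at 340 nm in kinetic mode over 15 min at 20 °C, slopes compared with a DMSO-only control, lower slope means inhibition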
Type: biochemical
measurement-setup: read-out: GAC Delta N2 IC50 no preinc
// pIC50 lookup, one value per entry
Units for pIC50: none; it is -log10 of a concentration expressed in mol/L.

Solved entries (count: 3):
O=C(Nc1nnc(CCSCc2nnc(NC(=O)[C@@H](O)c3ccccc3)s2)s1)[C@@H](O)c1ccccc1 [Compound 242] ... 6.44
O=C(Cc1ccccc1)Nc1ccc(CCCCc2nnc(NC(=O)Cc3cccc(O)c3)s2)nn1 [Compound 337] ... 7.14
O=C(Cc1ccccn1)Nc1ccc(CCCCc2nnc(NC(=O)Cc3ccccc3)s2)nn1 [Compound 383] ... 7.07

Request: State the recorded pIC50 for this entry: O=C(Nc1nnc(CCCCc2nnc(NC(=O)C(CO)c3ccccc3)s2)s1)C(CO)c1ccccc1 (centres unmarked) [Compound 36]
Result: 6.66

* * *

target-or-system: recombinant form of Glutaminase 1 (GAC) (Homo sapiens)
Sequence (O94925 137-598 isoform O94925-3 limits assumed): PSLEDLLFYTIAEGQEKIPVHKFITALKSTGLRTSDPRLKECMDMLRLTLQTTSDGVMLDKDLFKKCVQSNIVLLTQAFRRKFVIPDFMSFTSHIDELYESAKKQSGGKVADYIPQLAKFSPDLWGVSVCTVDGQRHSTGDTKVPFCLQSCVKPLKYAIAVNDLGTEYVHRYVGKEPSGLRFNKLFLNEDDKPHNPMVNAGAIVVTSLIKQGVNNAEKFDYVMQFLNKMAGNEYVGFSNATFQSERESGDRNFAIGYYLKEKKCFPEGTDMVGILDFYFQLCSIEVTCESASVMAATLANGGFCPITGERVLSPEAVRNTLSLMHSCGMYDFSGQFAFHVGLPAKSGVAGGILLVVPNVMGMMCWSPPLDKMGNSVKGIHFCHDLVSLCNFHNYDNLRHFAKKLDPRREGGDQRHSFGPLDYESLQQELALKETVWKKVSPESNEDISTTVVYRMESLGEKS
test: Recombinant Enzyme Assay (no preincubation)
Type: biochemical
measurement-setup: read-out: GAC Delta N2 IC50 no preinc
reported-property: IC50 (nM)
Field format: number, assumed nM, no unit text.

Request: Look up IC50 for this compound: O=C(Cc1ccccc1)Nc1nnc(CCSCCc2nnc(NC(=O)C(CO)c3ccccc3)s2)s1 (stereo not shown) [Compound 29]
Result: 560

Request: I have this compound here, O=C(Cc1ccccc1)Nc1ccc(CCCCc2nnc(NC(=O)Cc3cccc(OCCN4CCOCC4)c3)s2)nn1 [Compound 381] , and I need its recorded IC50.
Result: 160

Request: What value of measured IC50 is listed for O=C(Nc1nnc(CCSCCc2nnc(NC(=O)C3COc4ccccc43)s2)s1)C1COc2ccccc21 (stereo not shown) [Compound 133] ?
Result: 510

* * *

target-or-system: recombinant form of Glutaminase 1 (GAC) (Homo sapiens)
test: Recombinant Enzyme Assay - Time Dependence (60 min preincubation)
Type: biochemical
measurement-setup: read-out: GAC Delta N2 IC50 60 min preinc
Examples of compounds with documented IC50 follow.
Numeric only. Scale: nM

O=C(Cc1cccc(OC(F)(F)F)c1)Nc1ccc(CCCCc2nnc(NC(=O)Cc3ccncc3)s2)nn1 ... 10
O=C(Cc1cccc2c1CNC2)Nc1ccc(CCCCc2nnc(NC(=O)Cc3cccc(OC(F)(F)F)c3)s2)nn1 ... 4
O=C(Cc1cccc(Cn2cccn2)c1)Nc1ccc(CCCCc2nnc(NC(=O)Cc3ccccc3)s2)nn1 ... 4
CC(C)(C)OC(=O)NCCc1cccc(CC(=O)Nc2nnc(CCCCc3ccc(NC(=O)Cc4ccccc4)nn3)s2)c1 ... 4
CC(C(=O)Nc1nnc(CCCCc2ccc(NC(=O)Cc3ccccc3)nn2)s1)c1ccccc1 (stereo not drawn) ... 8
O=C(Cc1ccccc1)Nc1ccc(CCCCc2nnc(NC(=O)Cc3ccc(F)c(O)c3)s2)nn1 ... 4

Request: I have this compound here, O=C(Cc1cccc(OCCO)c1)Nc1ccc(CCCCc2nnc(NC(=O)Cc3ccccc3)s2)nn1 , and I need its recorded IC50.
Result: 7

Request: Param item = CC(C)(C)OC(=O)NCc1cccc(CC(=O)Nc2nnc(CCCCc3nnc(NC(=O)Cc4ccccc4)s3)s2)c1 ; retrieve measured IC50.
Result: 5

* * *

target-or-system: recombinant form of Glutaminase 1 (GAC) (Homo sapiens)
test: Recombinant Enzyme Assay (no preincubation)
Format: biochemical
measurement-setup: read-out: GAC Delta N2 IC50 no preinc
Each entry below lists one item and its recorded IC50 value.
A number alone suffices; assume nM.

In the examples that follow, each entry is paired with its recorded IC50.
Cc1nccn1Cc1cccc(CC(=O)Nc2nnc(CCCCc3ccc(NC(=O)Cc4ccccc4)nn3)s2)c1 ... 120
O=C(Cc1cccc(CN2CCNCC2)c1)Nc1nnc(CCSCc2nnc(NC(=O)Cc3cccc(CN4CCNCC4)c3)s2)s1 ... 1500
COc1ccc(CC(=O)Nc2nnc(CCCCc3nnc(NC(=O)Cc4ccc(OC)cc4)s3)s2)cc1 ... 130
COc1cccc(CC(=O)Nc2nnc(CCSCCc3nnc(NC(=O)Cc4ccccn4)s3)s2)c1 ... 280
O=C(Cc1ccccc1)Nc1ccc(CCCCc2nnc(NC(=O)Cc3ccccc3)s2)nn1 ... 57
O=C(Cc1ccccc1)Nc1ccc(CCCCc2nnc(NC(=O)Cc3cccnc3)s2)nn1 ... 100

Continue with the compound presented below.
Request: Give its IC50 value. Item: O=C(Cc1ccccc1)Nc1ccc(CCCCc2nnc(NC(=O)[C@H](O)c3cccc(Cl)c3)s2)nn1
Result: 96

* * *

target-or-system: recombinant form of Glutaminase 1 (GAC) (Homo sapiens, UniProt O94925)
test: Recombinant Enzyme Assay - Time Dependence (60 min preincubation)
Assay type: biochemical
measurement-setup: read-out: GAC Delta N2 IC50 60 min preinc
reported-property: IC50 (nM)
Write down the numeric answer in nM and omit the unit.

COC(=O)NCc1cccc(CC(=O)Nc2ccc(CCCCc3nnc(NC(=O)C(C)c4ccccc4)s3)nn2)c1 (stereo not drawn) ... 5
O=C(Cc1ccccc1)Nc1ccc(CCCCc2nnc(NC(=O)Cc3cccc(CNC(=O)C(O)C(F)(F)F)c3)s2)nn1 (stereo not drawn) ... 4
COC(=O)NCc1cccc(CC(=O)Nc2ccc(CCCCc3nnc(NC(=O)Cc4cccc(CNC(=O)OC)c4)s3)nn2)c1 ... 4
CC(C)(C)OC(=O)NC(C)(C)c1cccc(CC(=O)Nc2nnc(CCCCc3ccc(NC(=O)Cc4ccccc4)nn3)s2)c1 ... 4
CN(C)CC(=O)Nc1cccc(CC(=O)Nc2nnc(CCCCc3ccc(NC(=O)Cc4ccccc4)nn3)s2)c1 ... 9
CC(C)(C)OC(=O)NC(C)(C)c1cccc(CC(=O)Nc2ccc(CCCCc3nnc(NC(=O)Cc4ccccc4)s3)nn2)c1 ... 5
CC(C)(N)c1cccc(CC(=O)Nc2ccc(CCCCc3nnc(NC(=O)Cc4ccccc4)s3)nn2)c1 ... 7
CCOC(=O)NCc1cccc(CC(=O)Nc2ccc(CCCCc3nnc(NC(=O)C(OC)c4ccccc4)s3)nn2)c1 (stereo not drawn) ... 9

Pending compound:
Request: Tell me reported IC50 for CC(C)(O)CNC(=O)Cc1cccc(CC(=O)Nc2nnc(CCCCc3ccc(NC(=O)Cc4ccccc4)nn3)s2)c1 , tested with recombinant form of Glutaminase 1 (GAC) (Homo sapiens, UniProt O94925).
Result: 9

* * *

IC50 values, listed per item
target-or-system: recombinant form of Glutaminase 1 (GAC) (Homo sapiens)
test: Recombinant Enzyme Assay - Time Dependence (60 min preincubation)
Assay type: biochemical
Kindly answer with a numeric value in nM, unit omitted.

Cc1nccn1Cc1cccc(CC(=O)Nc2ccc(CCCCc3nnc(NC(=O)Cc4ccccc4)s3)nn2)c1 ... 4
CC(C)(N)c1cccc(CC(=O)Nc2nnc(CCCCc3ccc(NC(=O)Cc4ccccc4)nn3)s2)c1 ... 10
CC(C)CC(=O)NC(C)c1cccc(CC(=O)Nc2ccc(CCCCc3nnc(NC(=O)Cc4ccccc4)s3)nn2)c1 (stereo not shown) ... 4

Consider the record given below.
Request: Using the record for O=C(Cc1cccc(Br)c1)Nc1nnc(CCCCc2nnc(NC(=O)Cc3cccc(Br)c3)s2)s1 , report its IC50.
Result: 50
